Test system: Alopecurus myosuroides (ALOMY)
METHOD: Pre-emergence herbicidal activity, glasshouse pot test
Type: in vivo
CONDITION_SUMMARY: Alopecurus myosuroides, 312 h; Rate 250 g/ha; pre-emergence spray; evaluated after 13 days; read-out: Pre-emergence activity ALOMY (100=total damage to plant; 0=no damage to plant)
MEASURE_NAME: pest or weed control at 250 g/ha (%)

COMPOUND	SCALE_UNIT	MEASURED_RESULT
CCc1ccc(Oc2ncc(C(F)(F)F)cc2C(F)(F)F)cc1C1=C(O)[C@H]2CC[C@H](C2)C1=O [Example A-341]	%	100
CCc1ccc(Oc2ccc3ccccc3n2)cc1C1=C(O)[C@@H]2CC[C@](C)(C1=O)C2(C)C [Example A-321]	%	70
CCc1ccc(Oc2ccc(C#N)cc2)cc1C1=C(O)C(C)(C)OC(C)(C)C1=O [Example A-79]	%	80
CCc1ccc(Oc2c(Cl)cc(C(F)(F)F)cc2Cl)cc1C1=C(O)C(C)(C)OC(C)(C)C1=O [Example A-204]	%	0
CCc1ccc(Oc2ccc([N+](=O)[O-])cc2C(F)(F)F)cc1C1=C(O)CC(C)(C)CC1=O [Example A-294]	%	60
CCc1ccc(Oc2nc3ccc(OC)cc3s2)cc1C1=C(O)CC2(CCOCC2)CC1=O [Example A-264]	%	90
CCc1ccc(Oc2nc3ccc(OC)cc3s2)cc1C1=C(O)CC(C)(C)CC1=O [Example A-300]	%	80
CCc1ccc(Oc2cc(C)c(Cl)nn2)cc1C1=C(O)C(C)(C)OC(C)(C)C1=O [Example A-121]	%	10
CCc1ccc(Oc2ccnc(Cl)c2)cc1C1=C(O)C(C)(C)OC(C)(C)C1=O [Example A-72]	%	60
CCc1ccc(Oc2ccc(C(F)(F)F)cc2Cl)cc1C1=C(O)CC(C)(C)CC1=O [Example A-281]	%	70
CCc1ccc(Oc2ccc(Cl)c(F)c2)cc1C1=C(O)CC(C)(C)CC1=O [Example A-46]	%	100
CCc1ccc(Oc2ccc(Br)cc2)cc1C1=C(O)[C@@H]2CC[C@](C)(C1=O)C2(C)C [Example A-234]	%	70
CCc1ccc(Oc2ccc3cc(Cl)ccc3n2)cc1C1=C(O)C(C)(C)OC(C)(C)C1=O [Example A-159]	%	30
CCc1ccc(Oc2ccc(C(F)(F)F)cc2C#N)cc1C1=C(O)C(C)(C)OC(C)(C)C1=O [Example A-100]	%	40
CCc1ccc(Oc2nc3ccccc3nc2C(F)(F)F)cc1C1=C(O)C(C)(C)OC(C)(C)C1=O [Example A-174]	%	50
CCc1ccc(Oc2ccc(Br)cc2Cl)cc1C1=C(O)[C@H]2CC[C@H](C2)C1=O [Example A-244]	%	20
